Measured values drawn from ChEMBL document CHEMBL5154884 for this set.

Target: UniProtKB Q06124
Test: Inhibition of SHP2 PTP domain (unknown origin) using DiFMUP as substrate preincubated for 20 mins followed by substrate addition and measured for 2 hrs by fluorescence based analysis

| chemical.string | IC50 |
| --- | --- |
| Cc1nc2c(F)cc(-c3nc(Nc4nccc(Sc5cnc(N6CCC7(CC6)CO[C@@H](C)[C@H]7N)cn5)c4Cl)ncc3F)cc2n1C(C)C | > 20 µM |

----------
Biological target: Tyrosine-protein phosphatase non-receptor type 11 (Homo sapiens, UniProt Q06124)
Sequence (Q06124 whole entry): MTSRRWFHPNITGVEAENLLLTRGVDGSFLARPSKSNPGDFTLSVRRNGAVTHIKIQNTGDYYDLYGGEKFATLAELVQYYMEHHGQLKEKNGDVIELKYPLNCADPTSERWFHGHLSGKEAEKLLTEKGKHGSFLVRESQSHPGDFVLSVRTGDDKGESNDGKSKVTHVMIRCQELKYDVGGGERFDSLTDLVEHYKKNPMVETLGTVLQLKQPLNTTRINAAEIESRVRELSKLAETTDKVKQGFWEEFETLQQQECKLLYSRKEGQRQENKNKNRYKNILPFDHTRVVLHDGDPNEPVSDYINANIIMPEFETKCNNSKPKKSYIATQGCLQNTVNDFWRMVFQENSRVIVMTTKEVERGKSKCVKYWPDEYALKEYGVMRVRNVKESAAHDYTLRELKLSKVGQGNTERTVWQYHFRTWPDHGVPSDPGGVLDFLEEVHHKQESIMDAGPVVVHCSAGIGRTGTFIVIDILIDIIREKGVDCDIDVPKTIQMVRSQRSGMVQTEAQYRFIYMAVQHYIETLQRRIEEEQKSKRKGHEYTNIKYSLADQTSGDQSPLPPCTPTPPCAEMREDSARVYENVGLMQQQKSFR
Assay: Inhibition of SHP2 (unknown origin) using DiFMUP as substrate incubated for 60 mins followed by substrate addition for 30 mins by microplate reader method
pIC50: −log10 of the molar value.

| chemical.string | pIC50 |
| --- | --- |
| CN(C)C(=O)c1cc2cnc(Nc3ccc(Sc4cnc(N5CCC6(CC5)Cc5ccccc5[C@H]6N)cn4)c(Cl)n3)nc2n1C1CCCC1 | 7.47 |
| CN(C)C(=O)c1cc2cnc(Nc3ccc(Sc4cnc(N5CCC6(CC5)Cc5ccccc5[C@H]6N)cn4)c(Cl)c3)nc2n1C1CCCC1 | 7.28 |
| Cc1nc2c(F)cc(-c3nc(Nc4cccc(Sc5cnc(N6CCC7(CC6)CO[C@@H](C)[C@H]7N)cn5)c4Cl)ncc3F)cc2n1C(C)C | 7.78 |
| Cc1nc2c(F)cc(-c3nc(Nc4nccc(Sc5cnc(N6CCC7(CC6)CO[C@@H](C)[C@H]7N)cn5)c4Cl)ncc3F)cc2n1C(C)C | 8.37 |

----------
Biological target: CDK6/cyclin D3 (Homo sapiens, UniProt Q00534)
Sequence (Q00534 whole entry, one chain of several, the tested form may be a part): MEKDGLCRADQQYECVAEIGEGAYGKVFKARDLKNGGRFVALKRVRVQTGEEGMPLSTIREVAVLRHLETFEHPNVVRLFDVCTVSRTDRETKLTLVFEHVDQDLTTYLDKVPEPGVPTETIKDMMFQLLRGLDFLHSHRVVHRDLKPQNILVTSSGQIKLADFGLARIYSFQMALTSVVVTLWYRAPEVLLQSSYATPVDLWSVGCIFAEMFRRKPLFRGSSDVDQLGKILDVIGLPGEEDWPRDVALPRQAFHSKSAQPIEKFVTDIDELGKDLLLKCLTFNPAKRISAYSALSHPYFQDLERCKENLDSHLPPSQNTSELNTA
Experiment: Inhibition of recombinant N-terminal GST/His6-fusion tagged human CDK6/Cyclin D3 expressed in Sf9 insect cells incubated for 20 mins followed by [33P]gamma-ATP addition and measured after 2 hrs by radiometric HotSpot Kinase assay
pIC50: −log10 of the molar value.

| chemical.string | test.system | pIC50 |
| --- | --- | --- |
| Cc1nc2c(F)cc(-c3nc(Nc4nccc(Sc5cnc(N6CCC7(CC6)CO[C@@H](C)[C@H]7N)cn5)c4Cl)ncc3F)cc2n1C(C)C | CDK6/cyclin D3 (Homo sapiens, UniProt Q00534) | 6.20 |

----------
Assay: AUC in ICR mouse at 1 mg/kg, iv measured upto 24 hrs by LC-MS/MS analysis
Type: ADME, organism-based
Parameters: time < 24 hrs, dose 1 mg/kg, route iv
Conditions: in vivo

| chemical.string | AUC at 24 h / ng·h/mL |
| --- | --- |
| Cc1nc2c(F)cc(-c3nc(Nc4nccc(Sc5cnc(N6CCC7(CC6)CO[C@@H](C)[C@H]7N)cn5)c4Cl)ncc3F)cc2n1C(C)C | 1200 |

----------
Target: CDK4/Cyclin D3 (Homo sapiens, UniProt P11802)
Sequence (P11802 whole entry, the tested form may be a part): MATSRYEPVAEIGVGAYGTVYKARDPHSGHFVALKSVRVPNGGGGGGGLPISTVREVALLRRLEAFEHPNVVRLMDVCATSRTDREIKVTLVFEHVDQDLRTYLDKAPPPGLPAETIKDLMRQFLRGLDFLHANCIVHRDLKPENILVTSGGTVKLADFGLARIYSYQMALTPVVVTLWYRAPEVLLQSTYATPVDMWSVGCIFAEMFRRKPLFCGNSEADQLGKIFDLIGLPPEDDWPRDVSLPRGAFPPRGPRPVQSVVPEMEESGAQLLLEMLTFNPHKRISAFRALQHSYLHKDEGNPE
Sequence (P30281 whole entry, further chain, the tested form may be a part): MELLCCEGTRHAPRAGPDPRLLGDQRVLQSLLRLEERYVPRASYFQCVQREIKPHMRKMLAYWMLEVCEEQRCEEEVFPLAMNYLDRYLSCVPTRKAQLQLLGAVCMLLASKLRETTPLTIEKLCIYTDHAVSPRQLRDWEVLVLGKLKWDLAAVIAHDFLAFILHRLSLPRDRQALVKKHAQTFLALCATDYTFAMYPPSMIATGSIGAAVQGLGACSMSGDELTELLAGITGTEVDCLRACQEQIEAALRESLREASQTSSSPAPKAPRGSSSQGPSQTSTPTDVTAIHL
Assay: Inhibition of recombinant N-terminal GST/His6-fusion tagged human CDK4/Cyclin D3 expressed in Sf9 insect cells using 5-FAM-IPTSPITTTYFFFKKK as substrate preincubated for 10 mins followed by substrate addition and incubated for 3 hrs in presence of ATP by caliper mobility shift analysis
pIC50: −log10 of the molar value.
Below, each entry is listed with its recorded pIC50.
endpoint: pIC50

| chemical.string | endpoint | qualifying.sign | experimental.result |
| --- | --- | --- | --- |
| Cc1nc2c(F)cc(-c3nc(Nc4cc(Sc5cnc(N6CCC7(CC6)CO[C@@H](C)[C@H]7N)cn5)ccn4)ncc3F)cc2n1C(C)C | pIC50 | = | 7.79 |
| Cc1nc2c(F)cc(-c3nc(Nc4cccc(Sc5cnc(N6CCC7(CC6)CO[C@@H](C)[C@H]7N)cn5)c4Cl)ncc3F)cc2n1C(C)C | pIC50 | = | 8.17 |
| CN(C)C(=O)c1cc2cnc(Nc3ccc(Sc4cnc(N5CCC6(CC5)Cc5ccccc5[C@H]6N)cn4)c(Cl)n3)nc2n1C1CCCC1 | pIC50 | = | 6.28 |
| Cc1nc2c(F)cc(-c3nc(Nc4cc(Cl)c(Sc5cnc(N6CCC7(CC6)CO[C@@H](C)[C@H]7N)cn5)cn4)ncc3F)cc2n1C(C)C | pIC50 | = | 8.06 |
| CN(C)C(=O)c1cc2cnc(Nc3ccc(Sc4cnc(N5CCC6(CC5)Cc5ccccc5[C@H]6N)cn4)c(Cl)c3)nc2n1C1CCCC1 | pIC50 | < | 6.00 |
| CN(C)C(=O)c1cc2cnc(Nc3nccc(Sc4cnc(N5CCC6(CC5)Cc5ccccc5[C@H]6N)cn4)c3Cl)nc2n1C1CCCC1 | pIC50 | < | 6.00 |
| Cc1nc2c(F)cc(-c3nc(Nc4nccc(Sc5cnc(N6CCC7(CC6)CO[C@@H](C)[C@H]7N)cn5)c4Cl)ncc3F)cc2n1C(C)C | pIC50 | = | 7.74 |
| Cc1nc2c(F)cc(-c3nc(Nc4cc(Sc5cnc(N6CCC7(CC6)CO[C@@H](C)[C@H]7N)cn5)c(Cl)cn4)ncc3F)cc2n1C(C)C | pIC50 | < | 6.00 |
| Cc1nc2c(F)cc(-c3nc(Nc4cnc(Sc5cnc(N6CCC7(CC6)CO[C@@H](C)[C@H]7N)cn5)c(Cl)c4)ncc3F)cc2n1C(C)C | pIC50 | = | 8.04 |
| Cc1nc2c(F)cc(-c3nc(Nc4ccc(Sc5cnc(N6CCC7(CC6)Cc6ccccc6[C@H]7N)cn5)c(Cl)n4)ncc3F)cc2n1C(C)C | pIC50 | = | 6.35 |
| CN(C)C(=O)c1cc2cnc(Sc3cnc(N4CCC(C)(N)CC4)cn3)nc2n1C1CCCC1 | pIC50 | < | 6.00 |
| CN(C)C(=O)c1cc2cnc(Nc3ccc(Sc4cnc(N5CCC(C)(N)CC5)cn4)cn3)nc2n1C1CCCC1 | pIC50 | = | 8.09 |
| Cc1nc2c(F)cc(-c3nc(Nc4nccc(Sc5cnc(N6CCC7(CC6)Cc6ccccc6[C@H]7N)cn5)c4Cl)ncc3F)cc2n1C(C)C | pIC50 | = | 7.02 |
| Cc1nc2c(F)cc(-c3nc(Nc4ccc(Sc5cnc(N6CCC7(CC6)CO[C@@H](C)[C@H]7N)cn5)c(Cl)n4)ncc3F)cc2n1C(C)C | pIC50 | = | 6.86 |
